[
  {
    "smiles.code": "CCN1CCN(CC(=O)Nc2ccc(-c3nc4cc(Cl)ccc4o3)cc2)CC1",
    "melting point": "153 to 155 °C"
  },
  {
    "smiles.code": "CC(=O)c1nnn(-c2ccc(-c3nc4cc(Cl)ccc4o3)cc2)c1C",
    "melting point": "212 to 214 °C"
  },
  {
    "smiles.code": "O=C(CNCCc1ccccc1)Nc1ccc(-c2nc3cc(Cl)ccc3o2)cc1",
    "melting point": "129 to 131 °C"
  },
  {
    "smiles.code": "CCOC(=O)c1nnn(-c2ccc(-c3nc4cc(Cl)ccc4o3)cc2)c1C",
    "melting point": "251 to 253 °C"
  },
  {
    "smiles.code": "O=C(CN1CCN(Cc2ccccc2)CC1)Nc1ccc(-c2nc3cc(Cl)ccc3o2)cc1",
    "melting point": "195 to 197 °C"
  },
  {
    "smiles.code": "O=C(CN1CCCCC1)Nc1ccc(-c2nc3cc(Cl)ccc3o2)cc1",
    "melting point": "180 to 182 °C"
  }
]

###

For UniProt Q9UGN5, measured IC50 is reported for the entries below.
Sequence (Q9UGN5 whole entry): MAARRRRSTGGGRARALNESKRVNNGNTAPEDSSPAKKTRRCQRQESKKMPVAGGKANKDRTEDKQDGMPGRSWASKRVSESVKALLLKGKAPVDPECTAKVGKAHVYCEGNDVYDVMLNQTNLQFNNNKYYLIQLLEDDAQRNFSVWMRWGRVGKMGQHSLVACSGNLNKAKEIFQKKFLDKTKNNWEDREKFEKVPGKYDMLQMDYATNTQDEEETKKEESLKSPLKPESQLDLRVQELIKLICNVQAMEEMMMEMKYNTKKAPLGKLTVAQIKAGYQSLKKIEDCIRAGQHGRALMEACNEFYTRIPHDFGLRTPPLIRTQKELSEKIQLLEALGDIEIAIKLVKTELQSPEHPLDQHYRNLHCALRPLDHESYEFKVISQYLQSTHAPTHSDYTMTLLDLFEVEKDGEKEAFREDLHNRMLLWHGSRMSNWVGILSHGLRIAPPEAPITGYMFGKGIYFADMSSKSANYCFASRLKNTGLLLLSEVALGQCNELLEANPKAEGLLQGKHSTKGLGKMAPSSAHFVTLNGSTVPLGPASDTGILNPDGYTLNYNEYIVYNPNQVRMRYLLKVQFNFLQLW
endpoint.name: IC50

[
  {
    "smiles.code": "O=C(CCNCCCc1ccccc1)Nc1ccc(-c2nc3cc(Cl)ccc3o2)cc1",
    "measured.value": "74 nM"
  },
  {
    "smiles.code": "CCN(CC)CC(=O)Nc1ccc(-c2nc3cc(Cl)ccc3o2)cc1",
    "measured.value": "292 nM"
  },
  {
    "smiles.code": "O=C(CNCCc1ccccc1)Nc1ccc(-c2nc3cc(Cl)ccc3o2)cc1",
    "measured.value": "406 nM"
  },
  {
    "smiles.code": "O=C(CCN1CCOCC1)Nc1ccc(-c2nc3cc(Cl)ccc3o2)cc1",
    "measured.value": "70 nM"
  },
  {
    "smiles.code": "CCN(CC)CCC(=O)Nc1ccc(-c2nc3cc(Cl)ccc3o2)cc1",
    "measured.value": "57 nM"
  },
  {
    "smiles.code": "O=C(CNCCCc1ccccc1)Nc1ccc(-c2nc3cc(Cl)ccc3o2)cc1",
    "measured.value": "267 nM"
  },
  {
    "smiles.code": "CCN1CCN(CCC(=O)Nc2ccc(-c3nc4cc(Cl)ccc4o3)cc2)CC1",
    "measured.value": "84 nM"
  },
  {
    "smiles.code": "CN1CCN(CCC(=O)Nc2ccc(-c3nc4cc(Cl)ccc4o3)cc2)CC1",
    "measured.value": "106 nM"
  },
  {
    "smiles.code": "O=C(CCN1CCCCC1)Nc1ccc(-c2nc3cc(Cl)ccc3o2)cc1",
    "measured.value": "190 nM"
  }
]

###

[
  {
    "compound": "O=C(CCN1CCN(c2ccccc2)CC1)Nc1ccc(-c2nc3cc(Cl)ccc3o2)cc1 [Compound 18]",
    "melting point": "239 to 241 °C"
  },
  {
    "compound": "O=C(CCNCCCc1ccccc1)Nc1ccc(-c2nc3cc(Cl)ccc3o2)cc1 [Compound 25]",
    "melting point": "87 to 89 °C"
  },
  {
    "compound": "O=C(CN1CCOCC1)Nc1ccc(-c2nc3cc(Cl)ccc3o2)cc1 [Compound 7]",
    "melting point": "178 to 180 °C"
  },
  {
    "compound": "O=C(CCNCCc1ccccc1)Nc1ccc(-c2nc3cc(Cl)ccc3o2)cc1 [Compound 24]",
    "melting point": "73 to 75 °C"
  },
  {
    "compound": "COc1ccccc1N1CCN(CCC(=O)Nc2ccc(-c3nc4cc(Cl)ccc4o3)cc2)CC1 [Compound 19]",
    "melting point": "211 to 213 °C"
  },
  {
    "compound": "O=C(CN1CCN(c2ccccc2)CC1)Nc1ccc(-c2nc3cc(Cl)ccc3o2)cc1 [Compound 16]",
    "melting point": "231 to 233 °C"
  },
  {
    "compound": "O=C(CCN1CCN(Cc2ccccc2)CC1)Nc1ccc(-c2nc3cc(Cl)ccc3o2)cc1 [Compound 15]",
    "melting point": "182 to 184 °C"
  },
  {
    "compound": "O=C(CCl)Nc1ccc(-c2nc3cc(Cl)ccc3o2)cc1 [Compound 4]",
    "melting point": "218 to 220 °C"
  },
  {
    "compound": "O=C(CNCCCc1ccccc1)Nc1ccc(-c2nc3cc(Cl)ccc3o2)cc1 [Compound 22]",
    "melting point": "93 to 95 °C"
  }
]
